test system: HOP-92; experiment: NCI tumour cell line growth inhibition, 48 h
Activity calls are given as the source filed them. Cut-off read from the data, not from the text of the source: active = GI50 up to about 1.1 µM and inactive = higher.
// values below are reported GI50
quantity_name: GI50

• COC(C)(C)CCc1[nH]c2ccccc2c1CC(=O)NCCc1cncn1C = > 100 µM (inactive)
• COc1ccc(-n2nnc3c(C#N)c(-c4ccccc4)c(C)n3c2=O)cc1 = 23.8 µM (inactive)
• N#C/C=C\c1ccc(-c2cc(C(F)(F)F)cc(C(F)(F)F)c2)o1 = 20.7 µM (inactive)
• Cc1c(O)nc(/C=C/C(=O)O)nc1C(=O)O = > 100 µM (inactive)
• CC(=O)NC(CCCNC(=O)NCCCl)C(=O)NCc1ccccc1 (stereo unspecified) = > 100 µM (inactive)
• C=C1c2nc3ccccc3n2C=C(c2ccccc2)N1c1ccc(OC)cc1 = 31.1 µM (inactive)
• N=C(N)c1ccc(/C=C/c2ccc(C(=N)N)cc2)cc1 = > 100 µM (inactive)
• C/C(=N\NC(C)(C)C)c1sc(-c2nc(C)c(/C(C)=N/NC(C)(C)C)s2)nc1C = > 100 µM (inactive)
• [N-]=[N+]=Nc1ccc2c(c1)Sc1ccccc1N2CCCCN1CCN(C(=O)CCNC(=O)Cc2ccc(C(=O)c3ccccc3)cc2)CC1 = 6.71 µM (inactive)
• O=C(c1ccccc1)c1nnc(C(=O)c2ccccc2)nn1 = 166 µM (inactive)
• CCN1/C(=C/c2ccc3ccccc3[n+]2CC)C=Cc2ccccc21 = 1.44 µM (inactive)
• N/C(=N/c1ccc(O)cc1)S(=O)(=O)O = > 100 µM (inactive)
• Cc1nn(CN2CCN(C)CC2)c(=S)n1/N=C/c1ccc(-c2ccc(Cl)cc2Cl)o1 = > 100 µM (inactive)
• O=C1C2C3C=CC(C2C(=O)N1COP(=O)(O)O)C1C2C(=O)N(COP(=O)(O)O)C(=O)C2C31 (stereo unspecified) = > 100 µM (inactive)
• COc1cc2c(cc1O)[C@H](C)C(c1ccccc1OC)O2 (stereo partly specified) = 8.2 µM (inactive)
• C[C@@H]1CCC2C(C)(C)C(/C=C\C=O)C3(C)OC213 (stereo partly specified) = 26.5 µM (inactive)
• COc1ccc(C)cc(O)c1=O = 26.2 µM (inactive)
• O=C(CC/C(CC(=O)c1ccc(Br)cc1)=N\O)Nc1ccc(Cl)c(Cl)c1 = 68.2 µM (inactive)
• COc1ccc(-c2cc(-c3ccco3)c(C#N)c(=O)n2C2OC(OC(=O)c3ccccc3)C(OC(=O)c3ccccc3)C2OC(=O)c2ccccc2)cc1 (stereo unspecified) = 23.9 µM (inactive)
• Cc1cccc2c3ccc4c(c3n(C)c12)C(=O)C=CC4=O = > 100 µM (inactive)
• C[C@@H]1C[C@@H]2C(=O)N(c3ccccc3)C(=O)[C@@H]2c2[nH]c3ccc(Br)cc3c21 = 27.6 µM (inactive)
